These data points were gathered from paper PMC8126837.

Each item that follows carries a reported koff.
Molecular target: SARS-CoV-2 receptor-binding domain (RBD), wild type (SARS-CoV-2, UniProt P0DTC2 331-527)
Assay: BLI
Your answer should be a plain number; it is taken to be in s⁻¹.

[
  {
    "Binder": "WNbFc 36 (Fc fusion) QVQLQESGGGLVQPGGSLRLSCAVSGFTLDYYAIGWFRQAPGKEREGVSCISNSGGNTKYADSVKGRFTTSVDNAQNTVYLLMNSLEPEDTAVYYCAAIAATYYSGTYYYQCPHYGMDYWGKGTQVTVSS",
    "koff / s⁻¹": 0.000202
  },
  {
    "Binder": "WNbFc 7 (Fc fusion) QVQLQESGGGLVQPGGSLRLSCAAPGFTFSSYAMGWFRQVPGKGLEWVSGIYSDGSTYYADSVKGRFTISRDNAKNTVYLQMNSLKPEDTAVYYCAKDRLEGSSWPERDFGSWGQGTQVTVSS",
    "koff / s⁻¹": 0.000191
  },
  {
    "Binder": "WNbFc 15 (Fc fusion) QVQLQESGGGLVQPGGSLRLSCAASGFTFSSYLMGWFRQVPGKGLEWVSGIYSDGGTYYADSVKGRFTISRDNAKNTVYLQMNSLKPEDTAVYYCATDRMEGSSWPERDFGSWGQGTQVTVSS",
    "koff / s⁻¹": 0.000128
  }
]

Let's switch to this binder now.
WNbFc 2 (Fc fusion) QVQLQESGGGLVQPGGSLRLSCAVSGFTLDYYAIGWFRQAPGKEREGVSCISSSGGNTKYADSVKGRFTASRDNAKNTFYLQMNSLKPEDTAVYYCAAIAATYYSGSYYFQCPHDGMDYWGKGTQVTVSS has a reported koff of 0.000158
